test system: THRa homodimer (NR concentration 90 nM); experiment: PBM binding z-score (relative to random genomic background probes); higher = stronger binding; sequences stand for … in GC…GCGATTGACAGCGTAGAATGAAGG
experimental_readout: PBM binding z-score
# print the numeric value only

Provide value of PBM binding z-score for this record tested with THRa homodimer (NR concentration 90 nM): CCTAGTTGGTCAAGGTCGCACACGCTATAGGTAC
1.75

Provide value of PBM binding z-score for this record tested with THRa homodimer (NR concentration 90 nM): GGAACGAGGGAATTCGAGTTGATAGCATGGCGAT
-1.07

Provide value of PBM binding z-score for this record tested with THRa homodimer (NR concentration 90 nM): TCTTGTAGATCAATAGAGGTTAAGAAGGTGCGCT
-0.695

Provide value of PBM binding z-score for this record tested with THRa homodimer (NR concentration 90 nM): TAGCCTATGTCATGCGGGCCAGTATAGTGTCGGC
-0.992

Provide value of PBM binding z-score for this record tested with THRa homodimer (NR concentration 90 nM): ATCGAAAGGTCGTGAGGTGAGTATGCAGAAAGGC
1.71

Provide value of PBM binding z-score for this record tested with THRa homodimer (NR concentration 90 nM): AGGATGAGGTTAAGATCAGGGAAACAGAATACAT
1.15

Provide value of PBM binding z-score for this record tested with THRa homodimer (NR concentration 90 nM): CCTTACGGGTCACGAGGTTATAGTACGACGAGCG
1.19

Provide value of PBM binding z-score for this record tested with THRa homodimer (NR concentration 90 nM): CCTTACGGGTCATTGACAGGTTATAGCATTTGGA
0.494

Provide value of PBM binding z-score for this record tested with THRa homodimer (NR concentration 90 nM): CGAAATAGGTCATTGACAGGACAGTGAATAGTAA
0.329

---

test system: PPARg:RXRa 270nM:90nM, anti-RXR (NR concentration 270 nM, RXRa partner concentration 90 nM); assay: PBM binding z-score (relative to random genomic background probes); higher = stronger binding; sequences stand for … in GC…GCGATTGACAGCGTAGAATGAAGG
experimental_readout: PBM binding z-score
# print the numeric value only

For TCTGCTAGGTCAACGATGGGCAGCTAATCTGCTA , what is its reported PBM binding z-score?
3.01

For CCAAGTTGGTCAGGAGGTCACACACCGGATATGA , what is its reported PBM binding z-score?
4.03

For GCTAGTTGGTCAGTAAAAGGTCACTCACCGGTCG , what is its reported PBM binding z-score?
4.19

For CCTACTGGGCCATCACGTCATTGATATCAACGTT , what is its reported PBM binding z-score?
1.09

For CCTTACGGGTCACTCCAGTTTATAGCATCGGAGT , what is its reported PBM binding z-score?
3.3

For ATTCGGAGGACAAAGGTCAGAGCTACGCCAGTGA , what is its reported PBM binding z-score?
6.94

For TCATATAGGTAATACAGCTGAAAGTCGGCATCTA , what is its reported PBM binding z-score?
2.26

For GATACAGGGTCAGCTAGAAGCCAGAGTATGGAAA , what is its reported PBM binding z-score?
3.04

For ACTATTAGTTGAGACGAGGGCGACCGATAGGTTG , what is its reported PBM binding z-score?
-0.198

For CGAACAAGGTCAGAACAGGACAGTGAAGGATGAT , what is its reported PBM binding z-score?
3.2

For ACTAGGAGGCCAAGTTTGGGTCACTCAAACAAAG , what is its reported PBM binding z-score?
0.511

For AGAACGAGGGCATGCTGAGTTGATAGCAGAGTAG , what is its reported PBM binding z-score?
0.666

For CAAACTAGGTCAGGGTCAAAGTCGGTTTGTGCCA , what is its reported PBM binding z-score?
7.43

For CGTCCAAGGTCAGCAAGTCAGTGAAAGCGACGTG , what is its reported PBM binding z-score?
3.14

For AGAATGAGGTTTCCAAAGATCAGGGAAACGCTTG , what is its reported PBM binding z-score?
-0.265

For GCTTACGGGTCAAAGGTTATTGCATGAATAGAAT , what is its reported PBM binding z-score?
9.3

For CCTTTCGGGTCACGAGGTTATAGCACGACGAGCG , what is its reported PBM binding z-score?
6.75

For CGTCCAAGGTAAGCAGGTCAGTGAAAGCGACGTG , what is its reported PBM binding z-score?
0.427

For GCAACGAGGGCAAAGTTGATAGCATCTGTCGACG , what is its reported PBM binding z-score?
6.03

For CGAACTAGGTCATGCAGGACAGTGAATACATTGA , what is its reported PBM binding z-score?
6.21

For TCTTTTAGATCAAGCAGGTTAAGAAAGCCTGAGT , what is its reported PBM binding z-score?
1.68

For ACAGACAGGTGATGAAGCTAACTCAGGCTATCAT , what is its reported PBM binding z-score?
-0.13

For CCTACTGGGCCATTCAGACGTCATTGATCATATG , what is its reported PBM binding z-score?
0.206

For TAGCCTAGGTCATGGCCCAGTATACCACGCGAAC , what is its reported PBM binding z-score?
3.99

For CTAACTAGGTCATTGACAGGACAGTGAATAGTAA , what is its reported PBM binding z-score?
6.99

For GCCCGGAGGACAAGGTCAGAGCTTTGTCCGTAGA , what is its reported PBM binding z-score?
0.592

For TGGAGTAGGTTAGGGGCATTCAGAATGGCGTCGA , what is its reported PBM binding z-score?
3.05

For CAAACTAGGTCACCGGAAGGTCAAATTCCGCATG , what is its reported PBM binding z-score?
8.01

For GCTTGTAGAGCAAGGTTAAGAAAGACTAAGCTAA , what is its reported PBM binding z-score?
2.77

For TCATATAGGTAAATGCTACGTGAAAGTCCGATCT , what is its reported PBM binding z-score?
2.02

For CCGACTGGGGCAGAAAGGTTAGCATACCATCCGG , what is its reported PBM binding z-score?
1.7

For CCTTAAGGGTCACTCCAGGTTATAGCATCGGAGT , what is its reported PBM binding z-score?
5.1

---

system: PPARg homodimer (NR concentration 180 nM); experiment: PBM binding z-score (relative to random genomic background probes); higher = stronger binding; sequences stand for … in GC…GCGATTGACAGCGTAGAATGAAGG
experimental_readout: PBM binding z-score
# print the numeric value only

Provide value of PBM binding z-score for this record tested with PPARg homodimer (NR concentration 180 nM): ACAGACAGGGGAGTGAAGGTAACTCAGCTGGACG
0.229

Provide value of PBM binding z-score for this record tested with PPARg homodimer (NR concentration 180 nM): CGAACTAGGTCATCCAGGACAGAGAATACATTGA
1.64

Provide value of PBM binding z-score for this record tested with PPARg homodimer (NR concentration 180 nM): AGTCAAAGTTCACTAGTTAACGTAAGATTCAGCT
2.52

Provide value of PBM binding z-score for this record tested with PPARg homodimer (NR concentration 180 nM): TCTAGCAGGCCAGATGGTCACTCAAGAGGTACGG
-0.88

Provide value of PBM binding z-score for this record tested with PPARg homodimer (NR concentration 180 nM): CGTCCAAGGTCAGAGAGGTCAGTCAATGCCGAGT
4.06

Provide value of PBM binding z-score for this record tested with PPARg homodimer (NR concentration 180 nM): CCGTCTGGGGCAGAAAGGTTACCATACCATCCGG
0.553

Provide value of PBM binding z-score for this record tested with PPARg homodimer (NR concentration 180 nM): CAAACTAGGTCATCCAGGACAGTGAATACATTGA
2.69

Provide value of PBM binding z-score for this record tested with PPARg homodimer (NR concentration 180 nM): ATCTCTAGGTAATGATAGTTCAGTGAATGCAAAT
1.21

Provide value of PBM binding z-score for this record tested with PPARg homodimer (NR concentration 180 nM): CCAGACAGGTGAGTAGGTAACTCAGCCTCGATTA
1.08

Provide value of PBM binding z-score for this record tested with PPARg homodimer (NR concentration 180 nM): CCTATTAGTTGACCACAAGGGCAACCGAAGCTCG
1.46

Provide value of PBM binding z-score for this record tested with PPARg homodimer (NR concentration 180 nM): GCTGATAGGTCAACTGATGGTCAGCTAAAGCTCG
4.6

Provide value of PBM binding z-score for this record tested with PPARg homodimer (NR concentration 180 nM): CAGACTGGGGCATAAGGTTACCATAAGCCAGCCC
0.704

Provide value of PBM binding z-score for this record tested with PPARg homodimer (NR concentration 180 nM): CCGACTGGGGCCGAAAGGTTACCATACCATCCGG
0.848

Provide value of PBM binding z-score for this record tested with PPARg homodimer (NR concentration 180 nM): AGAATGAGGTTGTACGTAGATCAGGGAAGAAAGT
0.226

Provide value of PBM binding z-score for this record tested with PPARg homodimer (NR concentration 180 nM): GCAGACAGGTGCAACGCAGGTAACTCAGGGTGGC
-0.974

Provide value of PBM binding z-score for this record tested with PPARg homodimer (NR concentration 180 nM): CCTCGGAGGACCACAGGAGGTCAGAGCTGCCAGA
1.3

Provide value of PBM binding z-score for this record tested with PPARg homodimer (NR concentration 180 nM): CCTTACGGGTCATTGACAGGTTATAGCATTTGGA
2.77

Provide value of PBM binding z-score for this record tested with PPARg homodimer (NR concentration 180 nM): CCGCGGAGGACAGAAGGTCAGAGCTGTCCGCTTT
0.973

Provide value of PBM binding z-score for this record tested with PPARg homodimer (NR concentration 180 nM): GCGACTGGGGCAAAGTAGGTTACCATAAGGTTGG
-0.0778

Provide value of PBM binding z-score for this record tested with PPARg homodimer (NR concentration 180 nM): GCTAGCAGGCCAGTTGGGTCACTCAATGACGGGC
-0.447

Provide value of PBM binding z-score for this record tested with PPARg homodimer (NR concentration 180 nM): GTACCAAGGTGAATAGGTCGTTAATGAGTAGGCG
1.46

Provide value of PBM binding z-score for this record tested with PPARg homodimer (NR concentration 180 nM): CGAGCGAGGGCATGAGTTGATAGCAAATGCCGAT
-0.175

Provide value of PBM binding z-score for this record tested with PPARg homodimer (NR concentration 180 nM): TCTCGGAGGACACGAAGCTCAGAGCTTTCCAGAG
-0.926

Provide value of PBM binding z-score for this record tested with PPARg homodimer (NR concentration 180 nM): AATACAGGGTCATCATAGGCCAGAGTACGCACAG
1.8

Provide value of PBM binding z-score for this record tested with PPARg homodimer (NR concentration 180 nM): CCTACTGGGCCAAAAAGATCATTGATGCCGATAA
0.38

Provide value of PBM binding z-score for this record tested with PPARg homodimer (NR concentration 180 nM): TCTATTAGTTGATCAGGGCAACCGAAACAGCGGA
0.546

Provide value of PBM binding z-score for this record tested with PPARg homodimer (NR concentration 180 nM): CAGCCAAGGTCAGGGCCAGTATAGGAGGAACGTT
2.33

Provide value of PBM binding z-score for this record tested with PPARg homodimer (NR concentration 180 nM): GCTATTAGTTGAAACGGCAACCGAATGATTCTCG
0.137

Provide value of PBM binding z-score for this record tested with PPARg homodimer (NR concentration 180 nM): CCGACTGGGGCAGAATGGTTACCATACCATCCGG
0.0556

Provide value of PBM binding z-score for this record tested with PPARg homodimer (NR concentration 180 nM): ATATGTAGGTTAAGGGTCATCCAGGTTGGTTCGC
4.33

Provide value of PBM binding z-score for this record tested with PPARg homodimer (NR concentration 180 nM): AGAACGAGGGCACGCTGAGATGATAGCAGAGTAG
0.5

Provide value of PBM binding z-score for this record tested with PPARg homodimer (NR concentration 180 nM): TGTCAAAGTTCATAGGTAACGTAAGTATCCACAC
1.89

Recorded values, source the supplement of paper PMC6555819.
